# system.tested: human FPR2 (Homo sapiens (Human), UniProt P25090)
# Sequence (P25090 whole entry): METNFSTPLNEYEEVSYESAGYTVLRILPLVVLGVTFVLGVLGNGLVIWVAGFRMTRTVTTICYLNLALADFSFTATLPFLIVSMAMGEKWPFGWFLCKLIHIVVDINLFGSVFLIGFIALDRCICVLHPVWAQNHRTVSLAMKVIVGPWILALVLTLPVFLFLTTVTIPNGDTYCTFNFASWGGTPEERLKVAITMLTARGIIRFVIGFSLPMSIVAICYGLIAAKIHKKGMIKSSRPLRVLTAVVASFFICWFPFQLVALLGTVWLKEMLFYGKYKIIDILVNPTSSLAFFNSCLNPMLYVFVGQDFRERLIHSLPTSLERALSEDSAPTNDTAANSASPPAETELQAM
# experimental.protocol: FPR2 cyclic adenosine monophosphate (cAMP) assay
# Assay type: cell-based
# condition: CHO cells overexpressing human FPR2; forskolin 5 μM, IBMX 200 μM; inhibition of cAMP production, HTRF; read-out: hFPR2 cAMP2 EC50
pEC50: −log10 of the molar value.
Rule: pEC50 of 8 or more gives TRUE; anything lower gives FALSE.

Example entries begin here.
compound: COCCn1cccc(N2C[C@@H](c3ccc(Cl)cc3)[C@H](NC(=O)NC3CCc4cc(OC)ccc4C3)C2=O)c1=O (some centres unmarked)
cat: FALSE
--
compound: COc1cc(F)c([C@@H]2CN(c3cccn(C(F)F)c3=O)C(=O)[C@H]2NC(=O)NC2CCc3cc(OC)ccc3C2)c(F)c1 (single isomer, unassigned) [Example 94]
cat: TRUE
--
compound: COCCn1cccc(N2C[C@@H](c3ccc(OC)cc3)[C@H](NC(=O)NC3CCc4cc(OC)ccc4C3)C2=O)c1=O (some centres unmarked) [Example 42]
cat: TRUE

Task: Tell me whether pEC50 is at least 8 here: COc1cc(F)c([C@@H]2CN(c3nccc(N4CCC(C)(O)C4)c3C(F)(F)F)C(=O)[C@H]2NC(=O)N[C@H]2CC[C@H](C(F)F)CC2)c(F)c1 (single isomer, unassigned) [Example 92]
Output: FALSE

Task: In plain terms: is recorded pEC50 at least 8 for CNC(=O)C(C)Nc1ccnc(N2C[C@@H](c3c(F)cc(OC)cc3F)[C@H](NC(=O)N[C@H]3CC[C@H](C(F)F)CC3)C2=O)c1C(F)(F)F (single isomer, unassigned) [Example 75] ?
Output: FALSE

Task: Check if pEC50 >= 8 (inclusive). Item: CCn1cccc(N2C[C@@H](c3ccc(OC)cc3)[C@H](NC(=O)NC3CCc4cc(Cl)ccc4C3)C2=O)c1=O (some centres unmarked) [Example 6]
Output: TRUE

Task: Is the recorded value of pEC50 equal to or greater than 8 for this compound? CNC(=O)C(C)Nc1ccnc(N2C[C@@H](c3c(F)cc(OC)cc3F)[C@H](NC(=O)N[C@H]3CC[C@H](C(F)F)CC3)C2=O)c1C(F)(F)F (single isomer, unassigned) [Example 76]
Output: FALSE

Task: Does pEC50 meet or surpass 8 for CCn1cccc(N2C[C@@H](c3c(F)cc(OC)cc3F)[C@H](NC(=O)NC3CCc4cc(OC)ccc4C3(C)C)C2=O)c1=O (some centres unmarked) [Example 61] ?
Output: FALSE

Task: # check: pEC50 of COc1cc(F)c([C@@H]2CN(c3ncccc3C(F)(F)F)C(=O)[C@H]2NC(=O)NC2CCc3cc(OC)ccc3C2)c(F)c1 (some centres unmarked) [Example 64] is greater than or equal to 8
Output: FALSE
